polymerase ribozyme fitness (log ratio) listing for selected variants.
B1: TPR t1 (parent)
chain: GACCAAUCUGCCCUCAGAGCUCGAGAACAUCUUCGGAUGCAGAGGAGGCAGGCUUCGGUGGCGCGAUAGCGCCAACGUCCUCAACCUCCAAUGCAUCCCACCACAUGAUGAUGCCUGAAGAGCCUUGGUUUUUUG

Variants of: B1
Experiment: polymerase ribozyme fitness, log enrichment relative to wild type (log ratio); higher = more active; in vitro selection for triplet polymerase activity
Write the value as a bare number.

Would you please look over these solved cases?
>>> number("GACCAAUCUGCCCUCAGAGCUCGAGAACAUCUUCGGAUGCAGAGGAGGCAGGCUCCGGUGGCGCGAUAGCGCCAACGUCCUCAACCUCCAAUGCAUCCCACCACAUGAUGAUGCCUGAAGAGACUUGGUUUUUUG")
-0.354
>>> number("GACCAAUCUGCCCUCAGAGGUCGAGAACAUCUUCGGAUGCAGAGGAGGCAGGCUUCGGUGGCGCGAUAGCGCCAACGUCCUCAACCUCCAAUGCAUCCCACCACAUGAUGAUACCUGAAGAGCCUUGGUUUUUUG")
-2.69
>>> number("GACCAAUCUGCCCUCAGAGCUCGAGAACAUCUUCGGAUGCAGAGGAGGCAGGCUUCAGUGGCGCGAUAGCGCCAACGUCCUCAACCUCCAAUGCAUCCCACCAAAUGAUGAUGCCUGAAGAGCCUUGGUUUUUUG")
-2.92

Given the variant GACCAAUCUGCCUUCAGAGCUCGAGAACAUCUUCGGAUGCAGAGGAGGCAGGCUUCGGUGGCGCGAUAGCGGCUACGUCCUCAACCUCCAAUACAUCCCACCACAUGAUGAUGGCUGAAGAGCCUUGGUUUUUUG , what is its reported polymerase ribozyme fitness (log ratio)?
-4.31

What polymerase ribozyme fitness (log ratio) value was documented for this variant, GACCAAUCUGCCCUCAGAGCUCGAGAACAUCUUCGGAUGCAGAGGAGACAGGCUUCGGUGGCACGAUAGCGCCAACGUCCUCAACCUCCAAUGCAUCCCAACACAUGAUGAUGCCUGAAGAGCCUUGGUUUUUUG ?
-2.45

Please give the measured polymerase ribozyme fitness (log ratio) for this variant: GACCAAUCUGCCCUCAGAGCUCGAGAACAUCUUCGGAUGCCGAGGAGGCAGGCUUCGGUGGCGCGAUAGCUCCAACGUCCUCAACCUCCAAUGCAUCUCACCACAUGAUGAUGACUGAAGAGCCUUGGUUUUUUG
-5.3

For the variant GACCAAUCUGCCCUCAGAGCUCGAGAACAUCUUCGGAUGCAGAGGAGGCAGGCUUCGGUGGCGCGAUAGCGCCAACGUCCUCAACCACCAAUGCAUCCCACCACAUGAUGAUGCCUGAAGAGCCUUGGAUUUUUG , what polymerase ribozyme fitness (log ratio) is on record?
-0.873

Requested field: polymerase ribozyme fitness (log ratio). Item: GACCAAUCUGCCCUCAGAGCUCGAGAACAUCUUCGGAUGCAGCGGAGGCAGGCUUCGGCGGCGCGAUAGCGCCAACGUCAUCAACCUCCAAUGCAUCCCACCACAUGAUGAUGCCUGAAGAGCCUUGGUUUUUUG
-6.52

Can you share its polymerase ribozyme fitness (log ratio)? I mean this variant: GACCAAUCUGCCCUCAGGGCUCGAGAACAUCUUCGGAUGCAGAGGAGGCAGGCUUCGGUGGCGCGAUAGCGCCAACGUCCUCAACCUCCAAUGCAUCCCACCACAUGAUGAUGCCUCAAGAGCCUUGGUUUUUUG
-3.04

Which value of polymerase ribozyme fitness (log ratio) has been reported for GACCAAUCUGCCCUCAGAGCUCGAGAACAUCUUCGGAUGCAGAGGAGGCAGGCUUCGGUAGCGCGUUAGCGCCAACGUCCUCAACCUCCAAUGCAUCCCACCACAUGAUGAUGCCUGAAGAGCCUUGGUUUUUUG in the records?
-1.29

Would you kindly share the measured polymerase ribozyme fitness (log ratio) for GAUCAAUCUGCCCUCAGAGCUCGAGAACAUCUUCGGAUGCAGAGGAGGCAGGCUUAGGUGGCGCGAUGGCGCCAACGUCCUCAACCUCCAAUGCAUCCCACCACAUGAUGAUGCCUGAACAGCCUUGGUUUUUUG ?
-3.32

I'd like to know its polymerase ribozyme fitness (log ratio). The variant in question is GACCAAUCUGCCCUCAGAGCUCGAGAACAUCUUCGGAUGCAGAGGAGGCUGGCUUAGGUGGCGCGAUACCGCCAACGUCGUCAACCUCCAAUGCAUCCCACCAGAUGAUGAUGCGUGAAGAGUCUUGGUCUUUUG
-8.59

# polymerase ribozyme fitness (log ratio) lookup, item GACUAAUCUGCCCUCAGAGCUCGAGAACAUCUUCGGAUGCAGAGGAGGCAGGCUUCGGUGGCGCGAUAGCGCCAACGUCCUCAACUUCCAAUGCAUCCCAGCACAUGAUGAUGCCUGAAGAGCCUUGGUUUUUUG
-1.82

Consider the variant shown here: GACCAAUCUGCCCUCAGACAUCGAGAACAUCUUCGGAUGCAGAGGAGGCAGGCUUUGGUGGCGCGAUAGCACCAACGUCCUCAACCUCCAAUGCUUCCCACUACAUGAUGAUGCCCGAAGAGUCUGGGUUUUUUG What is its recorded polymerase ribozyme fitness (log ratio)?
-5.6
